Numbers sourced from ChEMBL document CHEMBL2169865.

Test: in vitro
Conditions: rat, liver microsomes
METRIC NAME: microsomal CLint at 0.5 h, 1 µM (µL/min/mg)

Some molecules with known microsomal CLint at 0.5 h, 1 µM results, for comparison:
> print(dat)
                               smiles.input  number
1  Cc1nc(N)nc(-c2cc(CN3CCN(S(C)(=O)=O)CC3)cnc2Nc2cncc(F)c2)n1      30
2  Cc1nc(N)nc(-c2cc(CN3CCN(S(C)(=O)=O)CC3)cnc2Nc2ccc(C(F)(F)F)nc2)n1      22
3  COc1ncc(Nc2ncc([C@@H](C)N3CCN(S(C)(=O)=O)C[C@H]3C)cc2-c2nc(C)nc(N)n2)cc1F     113
4  COc1ncc(Nc2ncc([C@@H](C)N3CCN(S(C)(=O)=O)C[C@@H]3C)cc2-c2nc(C)nc(N)n2)cc1F      69
5  COc1ncc(Nc2ncc(CN3CCN(S(C)(=O)=O)C[C@@H]3C)cc2-c2nc(C)nc(N)n2)cc1F      54

A. COc1ncc(Nc2ncc(CN3CCN(S(C)(=O)=O)CC3)cc2-c2nc(C)nc(N)n2)cn1
B. COc1ncc(Nc2ncc(C(C)(C)N3CCN(S(C)(=O)=O)CC3)cc2-c2nc(C)nc(N)n2)cc1F
C. Cc1nc(N)nc(-c2cc(CN3CCN(S(C)(=O)=O)CC3)cnc2Nc2ccc(Cl)nc2)n1
## Input Arrange the 3 molecules by rising microsomal CLint at 0.5 h, 1 µM, starting with the smallest. // respond by listing labels in the order requested
## Output A, C, B
